koff: recorded values
assayed-system: T1, human VEGF (human, UniProt P15692 207-395, biotinylated (site not stated))
T1 construct: Biotinylated human VEGF generated internally; also called hVEGF; hVEGF-biotin
T1 sequence: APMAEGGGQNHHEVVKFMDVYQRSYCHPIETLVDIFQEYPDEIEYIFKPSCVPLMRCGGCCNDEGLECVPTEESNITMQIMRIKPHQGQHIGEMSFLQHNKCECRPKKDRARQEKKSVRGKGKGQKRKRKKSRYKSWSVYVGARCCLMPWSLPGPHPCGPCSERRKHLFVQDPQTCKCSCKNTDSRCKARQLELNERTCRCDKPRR
experimental-protocol: Biacore SPR, hVEGF

NVS4 heavy chain variant D55Q (Fab, V domains shown, CDR variant of NVS4) VH: EVQLVESGGGLVQPGGSLRLSCTASGFSLTDYYYMTWVRQAPGKGLEWVGFIDPQDDPYYATWAKGRFTISRDNSKNTLYLQMNSLRAEDTAVYYCAGGDHNSGWGLDIWGQGTLVTVSS VL: EIVMTQSPSTLSASVGDRVIITCQASEIIHSWLAWYQQKPGKAPKLLIYLASTLASGVPSRFSGSGSGAEFTLTISSLQPDDFATYYCQNVYLASTNGANFGQGTKLTVLK = 0.000541 s⁻¹

// next entry
*Q* # koff lookup, item LC3T (Fab, V domains shown, Light chain CDR variant LC3 with tagged NVS4 heavy chain) VH: EVQLVESGGGLVQPGGSLRLSCTASGFSLTDYYYMTWVRQAPGKGLEWVGFIDPDDDPYYATWAKGRFTISRDNSKNTLYLQMNSLRAEDTAVYYCAGGDHNSGWGLDIWGQGTLVTVSS VL: EIVMTQSPSTLSASVGDRVIITCQASQKIHSWLAWYQQKPGKAPKLLIYQASKLAKGVPSRFSGSGSGAEFTLTISSLQPDDFATYYCQNVYLASRNGANFGQGTKLTVLK
*A* 0.00016 s⁻¹
